System: Escherichia coli
experimental.details: Bactericidal activity against gram-negative Escherichia coli ATCC 11229 after 24 hrs by broth dilution method
Assay type: functional
protocol.conditions: ATCC 11229, 24 h
measured.attribute: MBC

Field: example entries. Status: answers known.
{"columns": ["molecule", "MBC"],
 "data": [
  ["CCCCCCCCCCCCC(O)CN(CCO)CC(O)COC[C@H]1O[C@@H]2OC(C)(C)O[C@@H]2[C@H]2OC(C)(C)O[C@H]21 (mixture of isomers)", "> 868 µM"],
  ["CCCCCCCCCCNCCNCC(O)COC[C@H]1O[C@@H]2OC(C)(C)O[C@@H]2[C@H]2OC(C)(C)O[C@H]21 (mixture of isomers)", "> 990 µM"],
  ["CCCCCCCCCCCCNCCNCC(O)COC[C@H]1O[C@@H]2OC(C)(C)O[C@@H]2[C@H]2OC(C)(C)O[C@H]21 (mixture of isomers)", "235 µM"],
  ["CCCCCCCCCCCCN(CCO)CC(O)COC[C@H]1O[C@@H]2OC(C)(C)O[C@@H]2[C@H]2OC(C)(C)O[C@H]21 (mixture of isomers)", "> 938 µM"],
  ["CCCCCCCCCCCCCCNCCNCC(O)COC[C@H]1O[C@@H]2OC(C)(C)O[C@@H]2[C@H]2OC(C)(C)O[C@H]21 (mixture of isomers)", "445 µM"]
]}

So what's the measured MBC for this one? CCCCCCCCC(O)CN(CCO)CC(O)COC[C@H]1O[C@@H]2OC(C)(C)O[C@@H]2[C@H]2OC(C)(C)O[C@H]21 (mixture of isomers)
> 959 µM

So what's the measured MBC for this one? CCCCCCCCCCC(O)CN(CCO)CC(O)COC[C@H]1O[C@@H]2OC(C)(C)O[C@@H]2[C@H]2OC(C)(C)O[C@H]21 (mixture of isomers)
> 911 µM

So what's the measured MBC for this one? CCCCCCCCCCCCNCCCNCC(O)COC[C@H]1O[C@@H]2OC(C)(C)O[C@@H]2[C@H]2OC(C)(C)O[C@H]21 (mixture of isomers)
> 916 µM

So what's the measured MBC for this one? CCCCCCCCCCN(CCO)CC(O)COC[C@H]1O[C@@H]2OC(C)(C)O[C@@H]2[C@H]2OC(C)(C)O[C@H]21 (mixture of isomers)
> 988 µM

So what's the measured MBC for this one? CCCCCCCCCCCCCCN(CCO)CC(O)COC[C@H]1O[C@@H]2OC(C)(C)O[C@@H]2[C@H]2OC(C)(C)O[C@H]21 (mixture of isomers)
> 892 µM

So what's the measured MBC for this one? CCCCCCCCCCNCCCNCC(O)COC[C@H]1O[C@@H]2OC(C)(C)O[C@@H]2[C@H]2OC(C)(C)O[C@H]21 (mixture of isomers)
241 µM

====

System: Staphylococcus aureus
experimental.details: Bactericidal activity against gram-positive Staphylococcus aureus ATCC 3591 after 24 hrs by broth dilution method
Format: functional
protocol.conditions: ATCC 3591, 24 h
Measured log10 of MBC of individual entries
Annotation: log10 of MBC, µM basis.

{"columns": ["compound", "log10 of MBC"],
 "data": [
  ["CCCCCCCCCCNCCNCC(O)COC[C@H]1O[C@@H]2OC(C)(C)O[C@@H]2[C@H]2OC(C)(C)O[C@H]21 (mixture of isomers)", 0.90]
]}

So what's the measured log10 of MBC for this one? CCCCCCCCCCCCCCNCCNCC(O)COC[C@H]1O[C@@H]2OC(C)(C)O[C@@H]2[C@H]2OC(C)(C)O[C@H]21 (mixture of isomers)
1.15

So what's the measured log10 of MBC for this one? CCCCCCCCCCN(CCO)CC(O)COC[C@H]1O[C@@H]2OC(C)(C)O[C@@H]2[C@H]2OC(C)(C)O[C@H]21 (mixture of isomers)
2.09

So what's the measured log10 of MBC for this one? CCCCCCCCCCNCCCNCC(O)COC[C@H]1O[C@@H]2OC(C)(C)O[C@@H]2[C@H]2OC(C)(C)O[C@H]21 (mixture of isomers)
1.78
